Molecular target: T1, LC8 dynein light chain DYNLL1 (residues 1-89) (human (from the printed UniProt …, UniProt P63167 1-89))
T1 construct: DYNLL1, residues 1-89, UniProt P63167, cloned into pET-15b; The methods name thrombin removal of the His tag only for DYNLL2; also called DYNNL1; source: E. coli BL21(DE3)Star, purified (Ni IMAC, HiTrapQ anion exchange)
T1 sequence (P63167 whole entry, the tested form may be a part): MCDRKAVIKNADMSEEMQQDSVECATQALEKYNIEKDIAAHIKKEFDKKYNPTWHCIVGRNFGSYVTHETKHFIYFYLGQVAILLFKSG
Test: ITC; 15 µM DYNLL1 in the cell, 30-40 injections of 3-5 µl peptide; PBS with 3 mM 2-mercaptoethanol, pH 7.4; 299 K; A + B to AB model
Conditions: both partners purified
Ends that are not written are not given here.
endpoint.name: stoichiometry N

- binder: "Ac-GDKSTQTD (natural consensus extended by Gly at position -5; also called Gly-5 version of the natural consensus; source: synthetic peptide) [Ac-GDKSTQTD]"
  result: 1
- binder: "Ac-VSRGTQTE (also called phage selected consensus; source: synthetic peptide) [Ac-VSRGTQTE, in vitro evolved consensus peptide]"
  result: 1
- binder: "Ac-SRGTQTE (phage-selected consensus without position -5; also called Ac-5 version of the in vitro evolved consensus; source: synthetic peptide) [Ac-SRGTQTE]"
  result: 1
- binder: "Ac-DKSTQTD (also called natural consensus; Ac-5 version of the natural consensus; source: synthetic peptide) [Ac-DKSTQTD, naturally evolved consensus peptide]"
  result: 1
- binder: "Ac-VDKSTQTD (natural consensus extended by Val at position -5; also called Val-5 version of the natural consensus; source: synthetic peptide) [Ac-VDKSTQTD]"
  result: 1
- binder: "Ac-GSRGTQTE (phage-selected consensus with Gly at position -5; also called Gly-5 version of the in vitro evolved consensus; source: synthetic peptide) [Ac-GSRGTQTE]"
  result: 1
